- protocol: Bupivacaine concentrations in tear fluid after intracanalicular administration (LC/MS of Schirmer strip samples)
- Format: in vivo, beagle dogs
- test-conditions: female, beagle, dog, other: intracanalicular, 160 μg, Day 3, N=6, intracanalicular Inventive Composition insert, read-out: Bupivacaine concentration in tear fluid, Maximum

- molecule: "CCCCN1CCCCC1C(=O)Nc1c(C)cccc1C (stereo not shown) [Bupivacaine, bupivacaine]"
  u: "ng/mL"
  concentration at 3 day: 1520
